Target: T1, cMetECDHis (human, UniProt P08581 25-932, limits assumed, biotinylated in the cross-block ELISA of Example 17)
T1 construct: Expressed in HEK-293F cells; also called soluble cMetECDHis; biotinylated cMetECDHis
Experiment: cross-block ELISA; competitor 098
propertyName: residual binding, % of no competitor (%)

[[record]]
binder = "IgG1-1016-058 (antibody, V domains shown, also called IgG1-058; TH1016-058) VH: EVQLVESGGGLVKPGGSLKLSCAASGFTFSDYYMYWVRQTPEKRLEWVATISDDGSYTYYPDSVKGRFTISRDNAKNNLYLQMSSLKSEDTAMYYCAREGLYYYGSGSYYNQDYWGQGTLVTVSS VL: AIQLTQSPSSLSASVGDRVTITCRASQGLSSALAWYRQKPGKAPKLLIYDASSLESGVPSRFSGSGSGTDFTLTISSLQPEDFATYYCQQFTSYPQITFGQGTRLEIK"
reported = 112

[[record]]
binder = "anti-c-Met HuMab 098 (IgG1) (antibody, V domains shown, also called TH1016-098; PC1016-098) VH: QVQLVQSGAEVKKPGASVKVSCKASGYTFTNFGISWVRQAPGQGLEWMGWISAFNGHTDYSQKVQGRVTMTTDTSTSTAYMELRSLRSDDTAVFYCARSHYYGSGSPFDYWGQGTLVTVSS VL: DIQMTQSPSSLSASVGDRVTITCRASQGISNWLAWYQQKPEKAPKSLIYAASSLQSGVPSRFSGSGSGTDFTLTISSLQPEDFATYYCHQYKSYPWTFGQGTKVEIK"
reported = 2.6

[[record]]
binder = "anti-c-Met HuMab 006 (IgG1) (antibody, V domains shown, also called TH1016-006; PC1016-006) VH: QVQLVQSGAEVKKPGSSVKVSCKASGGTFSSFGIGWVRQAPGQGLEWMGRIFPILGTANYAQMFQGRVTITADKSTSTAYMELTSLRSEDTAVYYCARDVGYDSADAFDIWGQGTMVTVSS VL: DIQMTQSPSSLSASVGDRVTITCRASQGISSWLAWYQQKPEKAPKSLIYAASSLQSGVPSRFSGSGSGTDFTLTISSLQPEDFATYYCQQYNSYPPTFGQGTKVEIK"
reported = 111

